Reported IC50 values follow for various compounds
Target: KRAS G13C (Homo sapiens, UniProt P01116+P62937, G13C)
Sequence (P01116 1-169 isoform P01116-2 G13C): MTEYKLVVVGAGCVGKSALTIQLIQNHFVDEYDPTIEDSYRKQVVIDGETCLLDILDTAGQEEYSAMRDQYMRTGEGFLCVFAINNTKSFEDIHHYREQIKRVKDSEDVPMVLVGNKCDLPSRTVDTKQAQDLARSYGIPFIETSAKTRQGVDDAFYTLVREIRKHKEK
Sequence (P62937 whole entry): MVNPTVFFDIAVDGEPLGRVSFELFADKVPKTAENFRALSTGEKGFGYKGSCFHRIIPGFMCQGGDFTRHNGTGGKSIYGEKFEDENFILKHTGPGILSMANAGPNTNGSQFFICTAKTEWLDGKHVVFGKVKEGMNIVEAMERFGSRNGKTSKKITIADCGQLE
Assay: Disruption of BRAF RBD interaction with Ras (FRET / MOA assay, with Cyclophilin A)
Format: biochemical
Conditions: KRAS G13C; read-out: KRAS G13C FRET data IC50

1. C=CC(=O)N1CC[C@H](C(=O)N(C)[C@H](C(=O)N[C@H]2Cc3cc(O)cc(c3)-c3ccc4c(c3)c(c(-c3cncc(COC)c3)n4CC)CC(C)(C)COC(=O)[C@@H]3CCCN(N3)C2=O)C(C)C)C1
1000 to 10000 nM

-- ask Supply measured IC50 of C=CC(=O)N1CC[C@H](C(=O)N(C)[C@H](C(=O)N[C@H]2Cc3cc(O)cc(c3)-c3ccc4c(c3)c(c(-c3cccnc3COCC)n4CC)CC(C)(C)COC(=O)[C@@H]3CCCN(N3)C2=O)C(C)C)C1 in your reply.
-- reply 100 to 1000 nM

-- ask Supply measured IC50 of C=CC(=O)N1CC[C@H](C(=O)N(C)[C@H](C(=O)N[C@H]2Cc3cc(O)cc(c3)-c3ccc4c(c3)c(c(-c3ccc(CN(C)C)cc3)n4CC)CC(C)(C)COC(=O)[C@@H]3CCCN(N3)C2=O)C(C)C)C1 in your reply.
-- reply 1000 to 10000 nM

-- ask Supply measured IC50 of C=CC(=O)N(C)CCN(C)C(=O)N(C)[C@H](C(=O)N[C@H]1Cc2nc(cs2)-c2ccc3c(c2)c(c(-c2cccnc2[C@H](C)OCC)n3CC)CC(C)(C)COC(=O)[C@@H]2CCCN(N2)C1=O)C(C)C in your reply.
-- reply 100 to 1000 nM
